FYI, the data here is from paper PMC9849758.

- study target: Trypsin-3 (recombinant trypsin-3) (Homo sapiens, UniProt P35030)
- Construct: purchased R&D
- test method notes: IC50 determination, spectrophotometric protease assay
- Assay type: biochemical
- measurement conditions: read-out: Trypsin-3 IC50; biotin probes; 15 min preincubation at 37 °C; mean ± SD
pIC50: −log10 of the molar value.
measurement type: pIC50

pIC50 for O=C(CCCCC1SCC2NC(=O)NC21)NCCOCCOCCOCCn1cc(CCCOC(=O)NC(Cc2ccccc2)P(=O)(Oc2ccccc2)Oc2ccccc2)nn1 (stereo not shown) [compound 43] ?
< 5.00

---

- study target: β-tryptase (recombinant tryptase β-2) (Homo sapiens, UniProt P20231)
- Construct: purchased EnzoLife Sciences
- Sequence (P20231 31-275): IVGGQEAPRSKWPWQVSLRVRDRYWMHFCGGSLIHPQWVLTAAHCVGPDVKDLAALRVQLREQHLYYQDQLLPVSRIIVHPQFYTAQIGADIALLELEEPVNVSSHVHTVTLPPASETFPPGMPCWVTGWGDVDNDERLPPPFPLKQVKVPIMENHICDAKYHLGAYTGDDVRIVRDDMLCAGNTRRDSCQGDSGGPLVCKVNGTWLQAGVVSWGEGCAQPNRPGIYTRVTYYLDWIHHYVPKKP
- test method notes: IC50 determination, spectrophotometric protease assay
- Type: biochemical
- measurement conditions: read-out: β-tryptase IC50; biotin probes; 15 min preincubation at 37 °C; mean ± SD
measurement type: IC50

Which IC50 is reported with β-tryptase (recombinant tryptase β-2) (Homo sapiens, UniProt P20231) for this entry: O=C(CCCCC1SCC2NC(=O)NC21)NCCOCCOCCOCCn1cc(CCCOC(=O)NC(Cc2ccccc2)P(=O)(Oc2ccccc2)Oc2ccccc2)nn1 (stereo not shown) [compound 43] ?
> 10 µM

---

// Trypsin-3 kapp lookup, one value per entry
- study target: UniProtKB P35030
- Sequence (P35030 1-304): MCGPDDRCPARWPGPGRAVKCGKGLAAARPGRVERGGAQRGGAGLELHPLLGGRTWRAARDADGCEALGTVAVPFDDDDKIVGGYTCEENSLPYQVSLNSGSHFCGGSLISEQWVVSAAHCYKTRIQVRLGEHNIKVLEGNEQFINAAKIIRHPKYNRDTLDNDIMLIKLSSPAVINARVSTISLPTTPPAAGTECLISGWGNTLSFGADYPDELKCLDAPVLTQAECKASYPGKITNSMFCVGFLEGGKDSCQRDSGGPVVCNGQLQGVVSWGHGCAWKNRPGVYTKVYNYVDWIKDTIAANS
- test method notes: Kinetic progress curves (kapp, K1, KI*, mechanism)
- Type: biochemical
- Design: purchased R&D
- measurement conditions: apparent second-order rate constant from progress curves; mean ± SD
Field format: number, assumed M⁻¹ s⁻¹, no unit text.

C#CCCCOC(=O)NC(c1ccc(NC(=N)N)cc1)P(=O)(Oc1ccc(NC(C)=O)cc1)Oc1ccc(NC(C)=O)cc1 (centres unmarked) [38b]: 358
C#CCCCOC(=O)NC(c1ccc(NC(=N)N)cc1)P(=O)(Oc1ccccc1)Oc1ccccc1.O=C(O)C(F)(F)F (centres unmarked) [37b]: 293

Query compound follows.
Trypsin-3 kapp for C[C@@H]1NC(=O)N[C@@H]1CCCCCC(=O)NCCOCCOCCOCCn1cc(CCCOC(=O)NC(c2ccc(NC(=N)N)cc2)P(=O)(Oc2ccccc2)Oc2ccccc2)nn1 (some centres unmarked) [55b] ?
231

---

// IC50 lookup, one value per entry
- study target: Neutrophil Elastase (recombinant neutrophil elastase) (Homo sapiens, UniProt P08246)
- Construct: purchased Enzo LifeSciences
- Sequence (P08246 30-267, species assumed): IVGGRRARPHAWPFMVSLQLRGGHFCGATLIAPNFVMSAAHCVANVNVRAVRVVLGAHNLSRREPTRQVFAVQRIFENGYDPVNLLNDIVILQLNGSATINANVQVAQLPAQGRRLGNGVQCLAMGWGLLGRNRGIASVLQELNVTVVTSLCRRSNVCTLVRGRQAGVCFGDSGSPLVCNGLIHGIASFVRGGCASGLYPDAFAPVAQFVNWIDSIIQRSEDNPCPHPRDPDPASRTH
- test method notes: IC50 determination, spectrophotometric protease assay
- Assay type: biochemical

C#CCCCOC(=O)NC(C(C)C)P(=O)(Oc1ccccc1)Oc1ccccc1 (stereo not shown) [compound 13]: > 10 µM
CC(=O)Nc1ccc(OP(=O)(Oc2ccc(NC(C)=O)cc2)C(Cc2ccc(NC(=N)N)cc2)NC(=O)OCCCc2cn(CCOCCOCCOCCNC(=O)CCCCC[C@H]3NC(=O)N[C@H]3C)nn2)cc1 (stereo partly shown) [52b]: > 10 µM
C#CCCCOC(=O)NC(CCCNC(=N)N)P(=O)(Oc1ccccc1)Oc1ccccc1 (stereo not shown) [32b]: > 10 µM

Query compound follows.
Which IC50 is reported with Neutrophil Elastase (recombinant neutrophil elastase) (Homo sapiens, UniProt P08246) for this entry: C#CCCCOC(=O)NC(CCCCN)P(=O)(Oc1ccc(NC(=O)OC)cc1)Oc1ccc(NC(=O)OC)cc1 (stereo not shown) [30b] ?
> 10 µM
